# System: 324938-238-R-J1-PDC complex spheroid growth, % test/control;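 further: spheroids exposed to agents for seven days before viability read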
# assay_procedure: Anticancer human tumor 324938-238-R-J1-PDC patient-derived bladder carcinoma cell line growth inhibition [AhR]
# condition_details: second compound 3.16 µM; first compound 0.0316 µM; hits give low values
measurement_name: viability, T/C (%)
State the answer as a number, implicitly in %.

Please review the following examples before continuing.
Request: Check 324938-238-R-J1-PDC complex spheroid growth, % test/control data and give viability, T/C for CC(C)c1c(-c2ccccc2)nc2c(C#N)c[nH]n2c1=O + Cc1ccccc1N=Nc1ccc(NC(=O)c2ccnn2C)c(C)c1 .
Result: 80.1

Request: State viability, T/C (324938-238-R-J1-PDC complex spheroid growth, % test/control) of O=C(c1cc(Cc2n[nH]c(=O)c3ccccc23)ccc1F)N1CCN(C(=O)C2CC2)CC1 + Cc1cncc(-c2nc(NCCc3c[nH]c4ccccc34)c3ncn(C(C)C)c3n2)c1 .
Result: 78.4

Request: Using 324938-238-R-J1-PDC complex spheroid growth, % test/control as the test system, report measured viability, T/C of CC1COCCN1c1cc(-c2ccnn2C)c2ccnc(-c3ccn[nH]3)c2n1 (stereo not drawn) + Cc1ccccc1N=Nc1ccc(NC(=O)c2ccnn2C)c(C)c1 .
Result: 73.8

Request: Please look at O=C(c1cc(Cc2n[nH]c(=O)c3ccccc23)ccc1F)N1CCN(C(=O)C2CC2)CC1 + CC(CO)NC(=O)c1cc(-c2ccc(Cl)cc2)nn(-c2cnn(C)c2)c1=O and tell me its recorded viability, T/C on 324938-238-R-J1-PDC complex spheroid growth, % test/control.
Result: 65.8

Request: State viability, T/C on 324938-238-R-J1-PDC complex spheroid growth, % test/control. Entry: Nc1ncn(C2CC(O)C(CO)O2)c(=O)n1 (stereo not drawn) + Cc1cncc(-c2nc(NCCc3c[nH]c4ccccc34)c3ncn(C(C)C)c3n2)c1
Result: 104

Others:
Request: Quote viability, T/C with test system 324938-238-R-J1-PDC complex spheroid growth, % test/control for CC1COCCN1c1cc(-c2ccnn2C)c2ccnc(-c3ccn[nH]3)c2n1 (stereo not drawn) + CC(CO)NC(=O)c1cc(-c2ccc(Cl)cc2)nn(-c2cnn(C)c2)c1=O;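 further: spheroids exposed to agents for seven days before viability read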
Result: 51

Request: Find viability, T/C for CC1COCCN1c1cc(-c2ccnn2C)c2ccnc(-c3ccn[nH]3)c2n1 (stereo not drawn) + Cc1cncc(-c2nc(NCCc3c[nH]c4ccccc34)c3ncn(C(C)C)c3n2)c1 on 324938-238-R-J1-PDC complex spheroid growth, % test/control and write it down.
Result: 77.6

Request: Name the recorded viability, T/C of Nc1ccn(C2OC(CO)C(O)C2(F)F)c(=O)n1 (stereo not drawn) + Cc1ccccc1N=Nc1ccc(NC(=O)c2ccnn2C)c(C)c1 , assay system 324938-238-R-J1-PDC complex spheroid growth, % test/control.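 Further: spheroids exposed to agents for seven days before viability read.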
Result: 46.6

Request: Determine reported viability, T/C for COc1ccc([C@@H](O)c2cc(-c3ncnc4cc(N5CCOCC5)ccc34)c(F)cc2Cl)nn1 + Cc1ccccc1N=Nc1ccc(NC(=O)c2ccnn2C)c(C)c1 ; test system: 324938-238-R-J1-PDC complex spheroid growth, % test/control.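 Further: spheroids exposed to agents for seven days before viability read.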
Result: 83.5

Request: Tell me its viability, T/C on 324938-238-R-J1-PDC complex spheroid growth, % test/control: COc1cccc2c1C(=O)c1c(O)c3c(c(O)c1C2=O)CC(O)(C(=O)CO)CC3OC1CC(N)C(O)C(C)O1 (stereo not drawn) + Cc1ccccc1N=Nc1ccc(NC(=O)c2ccnn2C)c(C)c1
Result: 34.7

Request: Under 324938-238-R-J1-PDC complex spheroid growth, % test/control, report viability, T/C for NS(=O)(=O)OCC1CC(n2ccc3c(NC4CCc5ccccc54)ncnc32)CC1O (stereo not drawn) + CC(CO)NC(=O)c1cc(-c2ccc(Cl)cc2)nn(-c2cnn(C)c2)c1=O
Result: 69.9

Request: Fill in: viability, T/C on 324938-238-R-J1-PDC complex spheroid growth, % test/control, entry COc1cc(C2c3cc4c(cc3C(OC3OC5COC(C)OC5C(O)C3O)C3COC(=O)C23)OCO4)cc(OC)c1O (stereo not drawn) + CC(CO)NC(=O)c1cc(-c2ccc(Cl)cc2)nn(-c2cnn(C)c2)c1=O
Result: 70.6

Request: For 324938-238-R-J1-PDC complex spheroid growth, % test/control, give the measured viability, T/C of the entry Nc1ncn(C2CC(O)C(CO)O2)c(=O)n1 (stereo not drawn) + Cc1ccccc1N=Nc1ccc(NC(=O)c2ccnn2C)c(C)c1
Result: 77.2
